system-tested: T1, biotinylated-AviTag-haBiP^T229A-V461F (residues 27–635), unmodified (Chinese hamster, UniProt G3I8R9 27-635, T229A | V461F, biotin on the N-terminal Avi-tag)
T1 construct: Chinese hamster BiP residues 27–635; identical to human BiP over this range; A GS linker stands between the Avi-tag and BiP residue 27; also called unmodified BiP; BiP:ATP; source: E. coli, purified; biotinylated in vitro with GST-BirA, made nucleotide-free, MonoQ; not shown: His6-Smt3, N-terminal, cleaved; Avi-tag (biotinylated), N-terminal, kept
T1 sequence (G3I8R9 27-635 T229A/V461F): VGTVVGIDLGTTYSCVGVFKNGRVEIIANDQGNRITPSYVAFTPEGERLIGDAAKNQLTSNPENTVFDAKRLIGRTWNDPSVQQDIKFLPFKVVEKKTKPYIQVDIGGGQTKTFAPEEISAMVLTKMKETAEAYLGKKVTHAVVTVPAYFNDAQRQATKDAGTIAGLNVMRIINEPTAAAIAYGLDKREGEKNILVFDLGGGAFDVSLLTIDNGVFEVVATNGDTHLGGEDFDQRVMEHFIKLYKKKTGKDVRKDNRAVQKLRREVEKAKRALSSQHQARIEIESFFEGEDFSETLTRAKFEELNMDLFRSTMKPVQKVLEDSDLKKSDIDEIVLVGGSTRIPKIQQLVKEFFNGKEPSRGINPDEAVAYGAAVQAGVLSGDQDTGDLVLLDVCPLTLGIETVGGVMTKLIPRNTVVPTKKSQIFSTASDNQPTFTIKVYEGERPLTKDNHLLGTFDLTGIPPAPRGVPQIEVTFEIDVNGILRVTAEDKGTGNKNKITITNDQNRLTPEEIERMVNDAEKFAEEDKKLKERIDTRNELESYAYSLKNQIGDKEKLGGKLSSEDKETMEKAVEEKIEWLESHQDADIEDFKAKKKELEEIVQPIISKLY
assay-explanation: BLI; biotinylated BiP immobilised on streptavidin biosensor, activated with 2 mM ATP (BiP:ATP); TPR domain 62.5 nM to 16 µM, 50 s association and 50 s dissociation; HKMTx, 30 °C; one-phase global fit and steady-state one site fit
measurement-conditions: both partners purified
quantity-measured: pKd
Interpret pKd as the negative base-10 log of the concentration measured in mol/L.

# binder isolated TPR domain of FICD (domain or fragment) LEARAALNQALEMKRQGKREKAQKLFMHALKMDPDFVDALTEFGIFSEEDKDIIQADYLYTRALTISPYH ; its pKd = 5.96
